Recorded pKd values for a group of compounds are listed next.
target: OsCERK1-ECD (Oryza sativa, UniProt A0A0P0XII1); construct: N-terminal gp67 signal peptide for secretion, C-terminal His6; baculovirus, Trichoplusia ni High Five cells; secreted soluble protein; assay: microscale thermophoresis, label-free; settings: 50 mM Tris-HCl pH 7.8, 150 mM NaCl, 10 mM MgCl2, 0.05% Tween-20
Sequence (A0A0P0XII1 19-240 limits assumed): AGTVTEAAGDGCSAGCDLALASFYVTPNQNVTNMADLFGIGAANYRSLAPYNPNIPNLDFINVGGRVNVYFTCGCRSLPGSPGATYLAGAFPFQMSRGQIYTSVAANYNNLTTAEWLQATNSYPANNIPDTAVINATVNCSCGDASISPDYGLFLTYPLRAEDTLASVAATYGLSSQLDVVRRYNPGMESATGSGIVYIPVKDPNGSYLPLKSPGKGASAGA
pKd: −log10 of the molar value.
TEST_READOUT: pKd

COMPOUND	TEST_READOUT	TEST_VALUE
OC[C@H]1O[C@@H](O[C@H]2[C@H](O)[C@@H](O)[C@H](O[C@H]3[C@H](O)[C@@H](O)[C@H](O[C@H]4[C@H](O)[C@@H](CO)OC(O)[C@@H]4O)O[C@@H]3CO)O[C@@H]2CO)[C@H](O)[C@@H](O)[C@@H]1O (some centres unmarked)	pKd	5.54
OC[C@H]1O[C@@H](O[C@H]2[C@H](O)[C@@H](O)[C@H](O[C@H]3[C@H](O)[C@@H](CO)OC(O)[C@@H]3O)O[C@@H]2CO)[C@H](O)[C@@H](O)[C@@H]1O (some centres unmarked)	pKd	5.71
OC[C@H]1O[C@@H](O[C@@H]2[C@@H](O)[C@H](O[C@H]3[C@H](O)[C@@H](O)C(O)O[C@@H]3CO)O[C@H](CO)[C@H]2O)[C@H](O)[C@@H](O)[C@@H]1O (some centres unmarked)	pKd	5.36
OC[C@H]1O[C@@H](O[C@H]2[C@H](O)[C@@H](O)[C@H](O[C@H]3[C@H](O)[C@@H](O)[C@H](O[C@H]4[C@H](O)[C@@H](O)C(O)O[C@@H]4CO)O[C@@H]3CO)O[C@@H]2CO)[C@H](O)[C@@H](O)[C@@H]1O (some centres unmarked)	pKd	5.55
OC[C@H]1O[C@@H](O[C@H]2[C@H](O)[C@@H](O)[C@H](O[C@H]3[C@H](O)[C@@H](O)C(O)O[C@@H]3CO)O[C@@H]2CO)[C@H](O)[C@@H](O)[C@@H]1O (some centres unmarked)	pKd	5.37
